biological target: Short transient receptor potential channel 5 (Mus musculus) (UniProt Q9QX29); assay: Inhibition of mouse TRPC5 expressed in Flp-In-T-Rex-HEK293 cells assessed as reduction in […]-induced channel current at 3 uM by automated patch clamp method relative to control; type: cell-based
Sequence (Q9QX29 whole entry): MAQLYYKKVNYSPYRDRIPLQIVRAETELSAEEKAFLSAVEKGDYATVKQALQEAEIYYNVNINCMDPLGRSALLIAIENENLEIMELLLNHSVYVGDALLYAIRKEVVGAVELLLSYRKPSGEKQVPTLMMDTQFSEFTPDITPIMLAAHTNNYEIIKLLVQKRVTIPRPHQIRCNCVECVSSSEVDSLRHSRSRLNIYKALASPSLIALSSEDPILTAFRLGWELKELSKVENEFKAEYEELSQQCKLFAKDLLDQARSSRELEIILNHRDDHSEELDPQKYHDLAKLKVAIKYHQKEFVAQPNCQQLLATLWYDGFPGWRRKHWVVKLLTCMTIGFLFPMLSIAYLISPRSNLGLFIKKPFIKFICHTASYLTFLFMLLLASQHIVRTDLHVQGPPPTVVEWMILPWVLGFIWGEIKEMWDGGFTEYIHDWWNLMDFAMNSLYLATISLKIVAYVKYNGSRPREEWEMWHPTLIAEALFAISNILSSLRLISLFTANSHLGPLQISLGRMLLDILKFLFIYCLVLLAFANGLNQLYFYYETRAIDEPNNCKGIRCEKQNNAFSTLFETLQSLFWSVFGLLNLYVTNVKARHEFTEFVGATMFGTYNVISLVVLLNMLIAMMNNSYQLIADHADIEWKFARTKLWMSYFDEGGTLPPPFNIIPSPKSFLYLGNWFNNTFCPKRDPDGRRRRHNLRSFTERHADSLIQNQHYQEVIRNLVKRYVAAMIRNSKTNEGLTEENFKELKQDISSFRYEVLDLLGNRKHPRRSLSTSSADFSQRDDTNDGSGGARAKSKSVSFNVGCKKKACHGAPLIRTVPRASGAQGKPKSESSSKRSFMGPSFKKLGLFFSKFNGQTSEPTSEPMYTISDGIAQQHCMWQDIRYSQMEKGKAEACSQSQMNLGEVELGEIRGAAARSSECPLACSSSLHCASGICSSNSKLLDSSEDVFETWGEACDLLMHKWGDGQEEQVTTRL
outcomeMeasure: inhibition (%)

>  <molecule>
Brc1ccc(OCCn2c(NCc3ccco3)nc3ccccc32)cc1

>  <systemUnderTest>
Short transient receptor potential channel 5 (Mus musculus) (UniProt Q9QX29)

>  <inhibition (%)>
91.1

$$$$
>  <molecule>
Fc1ccc(Cn2c(NCc3ccco3)nc3cccnc32)cc1

>  <systemUnderTest>
Short transient receptor potential channel 5 (Mus musculus) (UniProt Q9QX29)

>  <inhibition (%)>
21.7

$$$$
>  <molecule>
c1ccc(Cn2c(NCc3ccon3)nc3ccccc32)cc1

>  <systemUnderTest>
Short transient receptor potential channel 5 (Mus musculus) (UniProt Q9QX29)

>  <inhibition (%)>
47

$$$$
>  <molecule>
Clc1ccccc1Cn1c(NCc2ccco2)nc2ccccc21

>  <systemUnderTest>
Short transient receptor potential channel 5 (Mus musculus) (UniProt Q9QX29)

>  <inhibition (%)>
2.6

$$$$
>  <molecule>
Fc1ccc(Cn2c(NCc3ccco3)nc3ccccc32)c(Cl)c1

>  <systemUnderTest>
Short transient receptor potential channel 5 (Mus musculus) (UniProt Q9QX29)

>  <inhibition (%)>
23.6

$$$$
>  <molecule>
c1ccc(Cn2c(NCc3nccs3)nc3ccccc32)cc1

>  <systemUnderTest>
Short transient receptor potential channel 5 (Mus musculus) (UniProt Q9QX29)

>  <inhibition (%)>
42.5

$$$$

[1] Cc1cc2nc(NCc3ccco3)n(Cc3ccccc3)c2cc1C
[2] Cc1nc(CNc2nc3ccccc3n2Cc2ccccc2)no1
# return whichever of 1 and 2 has the smaller inhibition // respond with label for picked entry 2
